Exercise: for every item that follows, state its recorded plant injury at 125 g/ha.
System: wheat (Triticum aestivum)
Assay: Test A postemergence
Assay type: in vivo
Settings: Triticum aestivum, post-emergence, 240 h, 125 g ai/ha, postemergence; visual injury on 0 to 100 scale (0 no effect, 100 complete control), approx. 10 d; read-out: Wheat plant response rating
Just the number please, in %, no unit attached.

Request: Fill in the blank: the reported plant injury at 125 g/ha of C/C=C/N1C[C@@H](c2cccc(C(F)(F)F)c2)[C@H](C(=O)Nc2ccccc2F)C1=O (racemic) is ____.
Response: 20

Request: Now give it for C=C(C)c1cccc([C@H]2CN(C)C(=O)[C@@H]2C(=O)Nc2ccc(F)c(F)c2F)c1 too.
Response: 0

Request: How about this compound: CC(C)COc1cccc([C@H]2CN(C)C(=O)[C@@H]2C(=O)Nc2cccc(F)c2F)c1
Response: 30

Request: Subsequent entry: O=C1NC[C@H](c2ccc(C(F)(F)F)cn2)[C@H]1C(=O)Nc1cccc(F)c1F
Response: 0

Request: What do you have for Cc1ccc([C@H]2CN(C)C(=O)[C@@H]2C(=O)Nc2cc(F)c(F)c(F)c2F)cc1 ?
Response: 0

Request: Now consider O=C1NCC(c2ccccc2OC(F)(F)C(F)F)C1C(=O)Nc1cccc(F)c1F (stereo not shown) and answer again.
Response: 0

Request: Record: CN1C[C@H](c2csc3ccccc23)[C@@H](C(=O)Nc2cccc(F)c2F)C1=O
Response: 20

###

Could you please report measured Plant response rating, Barnyardgrass for the items listed next?
System: barnyardgrass (Echinochloa crus-galli)
Assay: Test A preemergence
Format: in vivo
Details: 125 g ai/ha, preemergence; 0 to 100 scale (0 no effect, 100 complete control)
Number, no unit, nothing else.

Request: I am curious: what Plant response rating, Barnyardgrass value has been reported for O=C1NCC(c2ccccc2-c2ccccc2)C1C(=O)Nc1ccccc1F (racemic) [Compound 381] ?
Response: 0

Request: And the next one, O=C(Nc1ccccc1F)C1C(=O)N(c2ccccc2)CC1c1cccc(C(F)(F)F)c1 (stereo not drawn) [Compound 456] ?
Response: 0

Request: Similarly, Cc1cc(NC(=O)C2C(=O)NCC2c2ccc(F)c(F)c2)ccc1C(F)(F)F (stereo not drawn) [Compound 414] ?
Response: 0

Request: Also O=C1NCC(c2ccoc2)C1C(=O)Nc1ccccc1C(F)(F)F (racemic) [Compound 364] , if possible.
Response: 0

Request: And the next one, O=C1NCC(c2cccc(F)c2)C1C(=O)Nc1ccccc1C(F)(F)F (racemic) [Compound 376] ?
Response: 90

Request: Another compound: Cc1cc(C2CN(C)C(=O)C2C(=O)Nc2ccccc2F)ccc1F (stereo not drawn) [Compound 402]
Response: 90

Request: Moving on to the next compound: O=C1NCC(c2ccccc2-c2ccccc2)C1C(=O)Nc1ccc(F)c(F)c1F (racemic) [Compound 382]
Response: 0

Request: Here is the next compound: Cc1cc(C2CNC(=O)C2C(=O)Nc2cccc(F)c2F)ccc1F (stereo not drawn) [Compound 400]
Response: 90

Request: // next record CN1CC(c2ccc(C(F)(F)F)cc2F)C(C(=O)Nc2cccc(F)c2F)C1=O (stereo not drawn) [Compound 472]
Response: 90

###

Please go through the items and note down their pest or weed control at 250 g/ha.
Test system: sedge, umbrella (small-flower umbrella sedge, Cyperus difformis)
Assay: Test B flooded paddy test
Assay type: in vivo
Settings: Cyperus difformis, Flood, 250 g ai/ha; scale of 0 to 100 where 0 is no effect and 100 is complete control; read-out: Sedge, Umbrella plant response rating
Experimental: Plant species in the flooded paddy test selected from rice (Oryra sativa), sedge, umbrella (small-flower umbrella sedge, Cyperus difformis), ducksalad (Heteranthera limosa), and barnyardgrass (Echinochloa crus-galli) were grown to the 2-leaf stage for testing. […] Treated plants and controls were maintained in a greenhouse for 13 to 15 d, after which time all species were compared to controls and visually evaluated. […]

Request: Form field: pest or weed control at 250 g/ha recorded for CN1C[C@H](c2cc(F)cc(F)c2)[C@@H](C(=O)Nc2ccccc2[S@@+](C)[O-])C1=O [Compound 872] with sedge, umbrella (small-flower umbrella sedge, Cyperus difformis) (enter value)
Response: 40%

Request: // query: CN1C[C@H](c2cc(F)c(C(F)(F)F)c(F)c2)[C@@H](C(=O)Nc2cccc(F)c2F)C1=O [Compound 898]
Response: 0%

Request: // query: CCc1cc(CC)cc([C@H]2CN(C)C(=O)[C@@H]2C(=O)Nc2cccc(F)c2F)c1 [Compound 736]
Response: 0%

Request: Continue with CN1C[C@H](c2cccc(C3CC3)c2)[C@@H](C(=O)Nc2ccccc2F)C1=O [Compound 815]
Response: 0%

Values compiled from patent US12077503B2.
